Test system: C57BL/6J ob/ob mice
experimentalProtocol: Anti-diabetic activity in the C57BL/6j ob/ob mice model (plasma glucose lowering, insulin level)
Assay type: in vivo
experimentalParameters: Mus musculus, po; glucose lowering; male C57BL/6J ob/ob mice; orally by gavage once a day for 1-4 days; plasma glucose 6 hours after each dose; read-out: Potency
measure: minimal effective dose

In one line, give reported minimal effective dose of the entry CC(=O)NCCOC(=O)C(Oc1ccc(C(F)(F)F)cc1)c1ccc(C(F)(F)F)cc1 (centres unmarked) [Compound 145] .
≤ 125 mg/kg

In one line, give reported minimal effective dose of the entry O=C(O)C(Oc1ccc(C(F)(F)F)cc1)c1ccc(C(F)(F)F)cc1 (centres unmarked) [Compound 83] .
≤ 125 mg/kg

In one line, give reported minimal effective dose of the entry CC(=O)NCCOC(=O)C(Oc1ccc(C(F)(F)F)cc1)c1cccc(C(F)(F)F)c1 (centres unmarked) [Compound 136] .
≤ 125 mg/kg

In one line, give reported minimal effective dose of the entry CC(=O)NCCOC(=O)C(Oc1cccc(C(F)(F)F)c1)c1ccccc1C(F)(F)F (centres unmarked) [Compound 147] .
> 125 mg/kg

In one line, give reported minimal effective dose of the entry OCC(Oc1ccc(C(F)(F)F)cc1Cl)c1ccc(C(F)(F)F)cc1 (centres unmarked) [Compound 128] .
≤ 125 mg/kg

In one line, give reported minimal effective dose of the entry CC(=O)NCCOC(=O)C(Oc1cc(C(F)(F)F)cc(C(F)(F)F)c1)c1ccc(C(F)(F)F)cc1 (centres unmarked) [Compound 143] .
≤ 125 mg/kg

In one line, give reported minimal effective dose of the entry CC(=O)NCCOC(=O)C(Oc1cccc(C(F)(F)F)c1)c1cccc(C(F)(F)F)c1 (centres unmarked) [Compound 144] .
≤ 125 mg/kg

In one line, give reported minimal effective dose of the entry CC(=O)NCCOC(=O)C(Oc1ccccc1C(F)(F)F)c1ccc(C(F)(F)F)cc1 (centres unmarked) [Compound 146] .
> 125 mg/kg
